molecular target: hGLP-1R (Homo sapiens, UniProt P43220); assay: Functional cAMP activation in the presence of 0.1% casein (no HSA); assay type: cell-based; details: in the presence of 0.1% casein (no HSA); geometric mean; read-out: Relative cAMP EC50, hGLP-1R;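 further: intracellular cAMP rise after 30 min at 37 °C read by HTRF, normalized between buffer only (0%) and maximal control ligand (100%), four-parameter variable-slope fit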
Sequence (P43220 24-463): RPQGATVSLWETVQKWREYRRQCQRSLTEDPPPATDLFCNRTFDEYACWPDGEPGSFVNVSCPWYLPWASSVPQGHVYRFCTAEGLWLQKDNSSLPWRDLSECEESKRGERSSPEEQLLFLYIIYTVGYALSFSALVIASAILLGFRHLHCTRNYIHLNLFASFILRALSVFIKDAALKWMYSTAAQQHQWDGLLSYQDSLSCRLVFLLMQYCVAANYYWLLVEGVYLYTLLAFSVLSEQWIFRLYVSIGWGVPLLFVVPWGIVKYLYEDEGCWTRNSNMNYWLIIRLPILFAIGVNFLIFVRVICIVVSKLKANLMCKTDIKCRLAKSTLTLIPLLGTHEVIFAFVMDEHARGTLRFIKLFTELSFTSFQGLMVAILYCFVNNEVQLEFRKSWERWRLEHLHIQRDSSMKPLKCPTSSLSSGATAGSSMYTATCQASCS
Starred links: 1 amine or outer side, 2 acyl side, 3 side chain; linkers in the order of their positions; H or OH if unused. Non-standard residues stand in square brackets, D forms with d. Groups on a side chain read outwards from the residue. No end group written: not given here. *: point of attachment. C20 diacid = O=C(O)CCCCCCCCCCCCCCCCCCC(=O)*; C18 diacid = O=C(O)CCCCCCCCCCCCCCCCC(=O)*; Phe(4-CN) = N#Cc1ccc(C[C@H](N)C(=O)O)cc1; αMePhe(2-F) = C[C@](N)(Cc1ccccc1F)C(=O)O; γGlu = O=C(O)[C@H](CCC(=O)[*:2])N[*:1]; αMe4Pal = C[C@](N)(Cc1ccncc1)C(=O)O; αMeY = C[C@](N)(Cc1ccc(O)cc1)C(=O)O; 4Pal = N[C@@H](Cc1ccncc1)C(=O)O; αMeL = CC(C)C[C@](C)(N)C(=O)O; αMeS = C[C@](N)(CO)C(=O)O; Orn = NCCC[C@H](N)C(=O)O; Dap = NC[C@H](N)C(=O)O; AEEA = NCCOCCOCC(=O)O; Aib = CC(C)(N)C(=O)O
Catalogue of EC50 values
property: EC50 (nM)

substance | target-desc | measured-number
H-Y[Aib]QGTFTSDFS[Orn][αMeL]LDKK([AEEA-γGlu-C18 diacid])AQ[Aib]AFIEYLLAGGPSSGEPPPSGS-NH2 [Example 94] | hGLP-1R (Homo sapiens, UniProt P43220) | 2.63
H-Y[Aib]QGT[αMePhe(2-F)]TSD[Phe(4-CN)]SILLDKQAQK([AEEA-AEEA-γGlu-C20 diacid])AFIQYLLEGGPSSGEPPPSEG-NH2 [Example 353] | hGLP-1R (Homo sapiens, UniProt P43220) | 0.634
H-Y[Aib]QGT[αMePhe(2-F)]TSD[4Pal][αMeS]I[αMeL]LD[Orn]K([AEEA-γGlu-C18 diacid])AQ[αMe4Pal]EFI[dE][αMeY]LIEGGPSSGEPPPEGE-NH2 [Example 1149] | hGLP-1R (Homo sapiens, UniProt P43220) | 0.352
H-Y[Aib]QGTFTSDYSR[αMeL]LDKK([AEEA-γGlu-C18 diacid])AQ[Aib]AFIEYLLEGGESSGAPPPSGS-NH2 [Example 361] | hGLP-1R (Homo sapiens, UniProt P43220) | 2.08
H-Y[Aib]QGTFTSD[4Pal]S[Orn][αMeL]LD[Orn]K([Glu-γGlu-C18 diacid])AQ[Aib]AFIE[αMeY]LLEGGPSSGAPPPSGSEE-NH2 [Example 1066] | hGLP-1R (Homo sapiens, UniProt P43220) | 9.8
Y[Aib]QGTFTSD[4Pal]SR[αMeL]LDKK([AEEA-γGlu-C18 diacid])AQ[αMe4Pal]AFIEYLIEGGESSGAPPPSGS-NH2 [Example 792] | hGLP-1R (Homo sapiens, UniProt P43220) | 2.99
H-Y[Aib]QGTFTSDFS[Dap][αMeL]LDKK([AEEA-γGlu-C18 diacid])AQ[Aib]AFIEYLIE[Aib]GPSSGAPPPSGS-NH2 [Example 800] | hGLP-1R (Homo sapiens, UniProt P43220) | 0.486
H-Y[Aib]QGT[αMePhe(2-F)]TSD[4Pal][αMeS]I[αMeL]LD[Orn]K([AEEA-γGlu-γGlu-C18 diacid])AQ[αMe4Pal]EFI[dE][αMeY]LIEGGPSSGAPPPSGSE-NH2 [Example 1178] | hGLP-1R (Homo sapiens, UniProt P43220) | 0.437
H-Y[Aib]QGTFTSD[4Pal]SQ[αMeL]LDKK([γGlu-γGlu-C18 diacid])AQ[αMe4Pal]AFIEYLIE[Aib]GPSSGAPPPSGTGE-NH2 [Example 1127] | hGLP-1R (Homo sapiens, UniProt P43220) | 6.16
Y[Aib]QGT[αMePhe(2-F)]TSDYSKLLDKIAQK([AEEA-γGlu-C20 diacid])AFIQYLIEGGPSSGEPPPSEG-NH2 [Example 338] | hGLP-1R (Homo sapiens, UniProt P43220) | 1.22
H-Y[Aib]QGTFTSDFS[Orn][αMeL]LDKK([AEEA-γGlu-C18 diacid])AQ[Aib]AFIEYLLAGGPSSGAPPPSGS-NH2 [Example 95] | hGLP-1R (Homo sapiens, UniProt P43220) | 1.95
H-Y[Aib]QGTFTSDYSI[αMeL]LDKK([AEEA-γGlu-C20 diacid])AQRAFIEYLLEGGPSSGEPPPSEG-NH2 [Example 289] | hGLP-1R (Homo sapiens, UniProt P43220) | 0.449

* * *

Catalogue of pEC50 values
biological target: hGIPR (Homo sapiens, UniProt P48546); test: Functional cAMP activation in the presence of 0.1% casein (no HSA); format: cell-based; conditions: read-out: Relative cAMP EC50, hGIPR;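 further: intracellular cAMP rise after 30 min at 37 °C read by HTRF against a standard curve, scaled between buffer alone (0%) and top control ligand concentration (100%), four-parameter fit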
Sequence (P48546 22-466): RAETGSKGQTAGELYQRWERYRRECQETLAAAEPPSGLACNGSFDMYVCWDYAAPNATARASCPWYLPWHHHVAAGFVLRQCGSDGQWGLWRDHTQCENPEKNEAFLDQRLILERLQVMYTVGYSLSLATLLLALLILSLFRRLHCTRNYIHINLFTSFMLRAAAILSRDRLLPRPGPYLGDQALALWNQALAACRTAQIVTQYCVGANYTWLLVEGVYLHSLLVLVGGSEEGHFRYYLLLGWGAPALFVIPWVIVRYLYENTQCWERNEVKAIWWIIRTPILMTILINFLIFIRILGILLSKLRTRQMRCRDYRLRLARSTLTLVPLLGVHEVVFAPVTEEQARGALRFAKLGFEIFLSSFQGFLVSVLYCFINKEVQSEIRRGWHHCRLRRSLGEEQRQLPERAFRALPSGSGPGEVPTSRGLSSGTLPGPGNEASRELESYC
pEC50: −log10 of the molar value. Starred links: 1 amine or outer side, 2 acyl side, 3 side chain; linkers in the order of their positions; H or OH if unused. Non-standard residues stand in square brackets, D forms with d. Groups on a side chain read outwards from the residue. *: point of attachment. C18 diacid = O=C(O)CCCCCCCCCCCCCCCCC(=O)*; αMePhe(2-F) = C[C@](N)(Cc1ccccc1F)C(=O)O; γGlu = O=C(O)[C@H](CCC(=O)[*:2])N[*:1]; αMe4Pal = C[C@](N)(Cc1ccncc1)C(=O)O; αMeY = C[C@](N)(Cc1ccc(O)cc1)C(=O)O; 4Pal = N[C@@H](Cc1ccncc1)C(=O)O; αMeL = CC(C)C[C@](C)(N)C(=O)O; αMeS = C[C@](N)(CO)C(=O)O; Orn = NCCC[C@H](N)C(=O)O; AEEA = NCCOCCOCC(=O)O; Aib = CC(C)(N)C(=O)O

substance | pEC50
H-Y[Aib]QGT[αMePhe(2-F)]TSD[4Pal][αMeS]ILLD[Orn]K([γGlu-γGlu-C18 diacid])AQ[Aib][Orn]FI[dE][αMeY]LQEGGPSSGEPPPSGAE-NH2 [Example 547] | 9.82
H-Y[Aib]QGT[αMePhe(2-F)]TSD[4Pal]SI[αMeL]LD[Orn]K([AEEA-γGlu-C18 diacid])AQ[αMe4Pal][Orn]FI[dE][αMeY]LIEGGPSSGEPPPEEG-NH2 [Example 475] | 10.76
H-Y[Aib]QGT[αMePhe(2-F)]TSD[4Pal]SILLDKK([γGlu-γGlu-C18 diacid])AQ[Aib]AFIEYLEEGGPSSGAPPPSGAGE-NH2 [Example 620] | 10.15
H-Y[Aib]QGT[αMePhe(2-F)]TSD[4Pal][αMeS]I[αMeL]LD[Orn]K([AEEA-γGlu-C18 diacid])AQ[αMe4Pal]EFI[dE][αMeY]LVEGGPSSGEPPPSGTGE-NH2 [Example 734] | 10.88
H-Y[Aib]QGT[αMePhe(2-F)]TSD[4Pal][αMeS]I[αMeL]LD[Orn]K([Glu-γGlu-C18 diacid])AQ[Aib][Orn]FI[dE][αMeY]LSEGGPSSGEPPPSGTE-NH2 [Example 563] | 9.88
